experiment: yeast display, Sf9 membrane polyspecificity reagent, FACS + sequencing; frameworks hold sequencing errors

| SEQUENCE_RECORD | polyreactivity (PSR sort gate) |
| --- | --- |
| QVQLVESGGGLVQAGGSLRLSCAASGYIFSLYGMGWYRQAPGKERELVAAITGSGGGTYADSVKGRFTISRDNAQNTVYLQMKSLKPEDTAVYYCAAGGYRRRFWPIYDYWGQGTQVTVSS | low polyreactivity |
| QVQLVESGGGLVQAGGSLRLSCAASGFTFGGNVMGWYSQAPGKERELVAAISGAGSKYYADSVKGRFTISRDNAKNTVNLQMNSLKPEDTAVNYCAADDVARYLSGYDYWGQGTQVTVSS | low polyreactivity |
| QVQLVESGGGLVQAGGSLRLSCAASGFIFYYNTMGWYRQAPGKERELVASITWSGDTTYYADSVKGRFTISRDNAKNTVYLQMNSLKPEDTAVYYCAAVHYYPYRRYDYWGQGTQVTVSS | low polyreactivity |
| QVQLVESGGGLVQAGGSLRLSCAASGFTFSRNVMGWYRQAPGKERELVADITLSGASTYYADSVKGRFTISRDNAKNTVYLQMNSLKPEDTAVYYCAAEPYHWRWGWRHDYWGQGTQVTVSS | low polyreactivity |
| QVQLVESGGGLVQAGGSLRLSCAASGIIFNSNAMGWYRQAPGKERELVAAISVSGGSTYYADSVKGRFTISRDNAKNTVYLQMNSLKPEDTAVYYCAAVFYYWSLRSYYWGQGTQVTVSS | high polyreactivity |
| QVQLVESGGGLVQAGGSLRLSCAASGITPDYAMGWYRQAPGTERELVAAITWSGGRTYYADSVKGRFTISRDNAKNTVYLQMNSLKPEDTAVYYCAAEHYLGYDYWGQGTQVTVSS | low polyreactivity |
| QVQLVESGGGLVQAGGSLRLSCAASGITLGYYAMGWYRQAPGKERELVAAISYRGGNTYYADSVKGRFTISRDNAMKTVYLQMNSLKPEDSAVYYCAAYDEYYGYDYWGQGTQVTVSS | low polyreactivity |
| QVQLVESGGGLVQAGGSLRLSCAASGSIFRRYAMGWYRQPPGKERELVASISSRGTRTYYADSVKGRFTISRDNAKNTVYLQMNSLKPEDTAVYYCAASYYTPYDYWGQGTQVTVSS | high polyreactivity |
| QVQLVESAGGIVQAGGSLRLSCAASGFTFSRYAKGWNRPEPGKEREWVAAMTSSGGSTYYADSVKGRFTISRDNAKNTVYLQMNSLKPEDTAVYYCNARASGRTYRVDYWGQGTQVTVSS | high polyreactivity |
| QVQLVESGGGLVQAGGILRLSCAASGSIVTDNAMGWYRQAPGKERELVAAITSSGNTNYADSVKGRFTISRDNAKNTVYLQINSLKPEDTAVYYCAADSYYKHWTDWLPVGEDYWGQGTQVTVSS | low polyreactivity |
| QVQLVESGGGLVQAGGSLRLSCAASGFTSLGNAMGWYRQAPGKERELVAAISRSGGRTYYADSVKGRFTISRDNAKNTVYLQMNSLKPEDTAVYYCNAVRLYGQGGDYWGQGTQVTVSS | high polyreactivity |

* * *

assay: yeast display, Sf9 membrane polyspecificity reagent, FACS + sequencing; frameworks hold sequencing errors

| SEQUENCE_RECORD | polyreactivity (PSR sort gate) |
| --- | --- |
| QVQLVESGGGLVQAGGSLRLSCSASGIIFGFYAMGWYRQAPGKERELVAAITNDGGNTNYADSVKGRFTISRDNAKNTVYLQMNSLKPEDTAVYYCNADRTQDRNPYTYATFDYWGQGTQVTVSS | low polyreactivity |
| QVKLVESGGGLVQAGGSLRLSCPASGSTFYYNAMGWYRQAPGKERELVARISRSGGSTYADSVKGRFTISRDNAKNTVYLQMNSLKPEDTAVYYCNADAYGTPEFTSYAVRYDYWGQGTQVTVSS | low polyreactivity |
| QVQLVESGGGLVQAGGSLRLSCAASGRTFQWYTMGWYRQAPGKERELVAAISLSGTSTYYADSVKGRFTISRDNAKNTVYLQMNSLNPEDTAVYYCAAEDIGRYYRLDYWGQGTQVTVSS | low polyreactivity |
| QVQLVESGGGLVQAGGSLRLSCAASGSIYGFYAKGWYRQAPAKESELVAAIDSGDSSNYADSVKGRFTISRDNAKNTVYLQMKSLIPEDTAVYYWNAEAWWYFCFDYWGQGTQVTVSS | low polyreactivity |
| QVQLVESGGGLVQAGGSLRLSCAASGSILLRYAMGWYRQAPGKERELVAAISYDGGGTYYADSVKGRFTISRDNAKNTVYLQMNSLKPEDTAVYYCAADGYSSSGTAYDYWGQGTQVTVSS | low polyreactivity |
| QVQLVESGGGLVQAGGSLRISCAASGRTFARNSMGWYRQAPGKERELVATITIGGRTYYADSVKGRFTISRDNAMNTVYLQMNSLKPEDTAVYYCAKRISGYRGDYWGQGTQVTVSS | high polyreactivity |
| QVQIVESGGGLVQAGGSLRLSCAASGRIFVVIAMGWYRQAPGKERELVATITRGASTYADSVKGRFTISRDNAKNTVYLQMNSLKPEDTAVYYCAAAKRPQVVRYDWTKLEYWGQGTQVTVSS | high polyreactivity |
| QVQLVESGGGLVQAGGSLRLSCAASGFIFIKYAMGWYRQAPGKERELVAAISSSGGSTYYADSVKGRFTISRDNAKNTVYLQMNSLKPEDTAVYYCAARTYRGLAYDYWGQGTQVTVSS | high polyreactivity |
| QVQLVESGGGLVQAGVSLRLSCAASGFIFYWYVMGWYRHAPGKERELVAGISKNGTNTYYADSVKGRFTISRDNAKNTVYLQMNSLKPEDTAVYYCAAAKCRTKYDYWGQGTQVTVSS | high polyreactivity |
| QVQLVESGGGLVQAGGSLRLSCAASGIIFFAYAMGWYRQAPGKERELVAAISSSGGRTYYSDSVKGRFTISRDNAKNTVYLQMNSMIPEDTAVYYCTARWHGSFDYWGQGTQVTVSS | low polyreactivity |
| QVQLVESGGGLVQAGGSLRLSCAASGRTFYYNTKGWYRQAPGKERELVASISGSGGRTYFADSVKGRFTISRDTAKNTVYLQMNSLKPEDTAVYYCASSRARRSRYILDYWGQGTQVTVSS | high polyreactivity |

* * *

assay: yeast display, Sf9 membrane polyspecificity reagent, FACS + sequencing; frameworks hold sequencing errors

| SEQUENCE_RECORD | polyreactivity (PSR sort gate) |
| --- | --- |
| QGQLVESGGGLVQAGGSLRLTCAASGFIFDNYAMGWYRHAPGKERELVADISWGGGSTYYADSVKGRFTISRDNAKNTVYLQMNSLTPEDTAVYYCDAQYSYRMDYWGQGTQVTVSS | low polyreactivity |
| QVQLVESGGGLVQAGGSLRLSCAASGRIFLTYAMGWYRQAPGKERELVAAISGRGGSTYYADSVNGRFTISRDYAKNTVYLQMNSLKPEDTAVYYCAAAKWVIQTGNYYYWGQGTQVTVSS | low polyreactivity |
| QVQLVESGGGLVQAGGSLRLSCAASGRTFRKYAMGWSRQAPGKERELVAAINRGGTTKYADSVKGRFTISRDNAKNTVYLQMNSLKPEDTAVYYCNAAYGGVFFYAYDYWGQGTQVTVSS | low polyreactivity |
| QVQLVESGGGLVQAGGSLRLSCAASGRTFEHYAMGWYRQAPGKERELVAAINSSDGGTYYADSVKGRFTISRDNAKNTVYLQMNSLKPEDTAVYYCAAAEFGSVPGYEMDYWGQGTQVTVSS | low polyreactivity |
| QVQLVESGGGLVQAGGSLRLICADSGLIFRWYAMGWYRQAPGKERELVAAISRRGGTTNYADSVKGRFTISRDNAKNTVYLQMNSLKPEDTAVYYCAVSGGFYWGQGTQVTVSS | high polyreactivity |
| QVQLVESGGGLVQAGGSLRLSCAASGSIFGDNAMGWYRQAPGKERELVAAISIVGSTSYADSVKGRFTISRDNAKNTVYLQMNSLKPEDTAVYDCAAEIVRSDTGFDYWGQGTQVTVSS | low polyreactivity |
| QVQLVESGGGLVQAGGSLRLSCAASGNTFGYYAMGWYRQAPGKERELVAAINFGGDTSYADSVKGRFTISRDNAKNTVYLQMNSLKPEDTAVYYCAADGSYWIYADGDYWGQGTQVTVSS | low polyreactivity |
| QVQLVESGGGLVQAGGSLRLSCAASGSIFDGYGMGWSRQAPGKERELVAGITSGGSTYYADSVKGRFTISRDNAKNTVYLQMNSLKPEDTAVYYCATVVRYSNARGDYWGQGTQVTVSS | low polyreactivity |
| QVQLVESGGGLVQAGGSLRLSCAACGSIFYYYAMGWYRQAPGKERELVAAITVSGGRTYYADSVKGRFTISRDNAKNSVYLQMNSLKPEDTAVYYCAARRGRYSYYYWGQGTQVTVSS | high polyreactivity |
| QVQLVESGGGLVQAGGSLRLSCAASGSIFGDNAMGWYRQAPRKERELVAVISSSGSTYYADSVKGRFTISRDNAKNTVFLQMNSLKPEDSAVYYCNAYQFDWYEEYYYWGQGTQVTVSS | low polyreactivity |
| QVQLVESGGGLVQAGGSLRLSCAASGSTFSPYAMGWYRQAPGKERELVAAINYSSGSTYYADSVKGRFTISRDNAKNTVYFQMNSLKTEDTAVYYCAKGWYAGYPYDYWGQGTQVTVSS | low polyreactivity |
